Parameter photoluminescence quantum yield: see the listing below.
assay_comment: photoluminescence quantum yield (fraction); solvent given as SMILES
test_context: in C1COCCO1
Provide a numeric answer; units are not to be included.

Example cases with answers are listed next.
CCC(C)(C)c1ccc(-c2ccc(-c3ccc(C(C)(C)CC)cc3)cc2)cc1 = 0.85
COc1nc(Cl)nc(Nc2ccc3cc4ccccc4cc3c2)n1 = 0.25
COc1cc(N(c2ccccc2)c2ccc(C=C(C#N)C#N)c(OC)c2)ccc1C=C(C#N)C#N = 0.035
COC(=O)c1ccc(/C=C2\C=C(c3ccc(OC)c(OC)c3)NC2=O)cc1 = 0.363

Q) Give reported photoluminescence quantum yield value for CC(C)CN1C(=O)/C(=C/c2ccc([N+](=O)[O-])cc2)C=C1c1ccccc1
A) 0.033

Q) Give reported photoluminescence quantum yield value for CCCCCCCCC1(CCCCCCCC)c2cc(C=O)ccc2-c2ccc(/C=C/c3ccc(N(c4ccccc4)c4ccccc4)cc3)cc21
A) 0.67

Q) Give reported photoluminescence quantum yield value for CC(=O)c1c2c(cc3c(N(C)C)cccc13)CCC2
A) 0.44

Q) Give reported photoluminescence quantum yield value for COC(=O)c1ccc(C#Cc2ccc(N(C)C)cc2)cc1
A) 0.303

Q) Give reported photoluminescence quantum yield value for O=C(O)c1ccccc1Nc1cccc(C(F)(F)F)c1
A) 0.026

---

assay_comment: photoluminescence quantum yield (fraction); solvent given as SMILES
test_context: in ClC(Cl)Cl
Parameter photoluminescence quantum yield: see the listing below.

CC(=O)c1c2c(cc3cc(N(C)C)ccc13)CCC2 = 0.41
N#Cc1nc(N(Cc2ccc(Br)cc2)Cc2ccc(Br)cc2)c(C#N)nc1N(Cc1ccc(Br)cc1)Cc1ccc(Br)cc1 = 0.71
CCCCCCCCn1c(=O)c2cc3c(C#Cc4ccc(N(c5ccccc5)c5ccccc5)cc4)c4cc5c(=O)n(CCCCCCCC)c(=O)c5cc4c(C#Cc4ccc(N(c5ccccc5)c5ccccc5)cc4)c3cc2c1=O = 0.53
O=C1[C@@H]2[C@H](C(=O)N1c1cccc3cc4ccccc4cc13)[C@H]1C[C@@H]2c2c1c(-c1ccccc1)c1ccccc1c2-c1ccccc1 = 0.28
CCCCN1C(=O)c2cc(Br)c3c4c(Br)cc5c6c(cc(Br)c(c7c(Br)cc(c2c37)C1=O)c64)C(=O)N(CCCC)C5=O = 0.31

Q) Give reported photoluminescence quantum yield value for c1cc(N2CCCC2)ccn1
A) 0.03

Q) Give reported photoluminescence quantum yield value for CCOc1ccc2c(-c3nc(-c4ccccc4)no3)cc(=O)oc2c1
A) 0.31

Q) Give reported photoluminescence quantum yield value for CCN(CC)/C(C)=N\c1ccc2c3c(cccc13)C(=O)c1ccccc1-2
A) 0.49

---

assay_comment: photoluminescence quantum yield (fraction); solvent given as SMILES
test_context: in CC#N
endpoint: photoluminescence quantum yield
Provide a numeric answer; units are not to be included.

COc1ccc(-c2c3ccccc3c3n2[B-](F)(F)[N+]2=Cc4c5ccccc5c(-c5ccc(OC)cc5)n4[B-](F)(F)[N+]2=C3)cc1 = 0.22

Q) Give reported photoluminescence quantum yield value for O=P1(c2ccccc2)C(c2cc(C(F)(F)F)cc(C(F)(F)F)c2)=Cc2c3ccc4cccc5ccc(c6cc(-c7ccccc7)n1c26)c3c45 (stereo not given)
A) 0.63

Q) Give reported photoluminescence quantum yield value for N#C/C(=C\c1ccc(C(F)(F)F)cc1)c1nc(-c2ccc(Cl)cc2)cs1
A) 0.057

Q) Give reported photoluminescence quantum yield value for Cc1cccc(C)c1Nc1ccc(/C=C/c2ccc3ccccc3c2)cc1
A) 0.08

Q) Give reported photoluminescence quantum yield value for O=Cc1c(O)c(-c2nc3ccccc3s2)cc2ccccc12
A) 0.052

Q) Give reported photoluminescence quantum yield value for O=c1oc2ccccc2cc1-c1nc2ccccc2o1
A) 0.72

Q) Give reported photoluminescence quantum yield value for COc1ccc(O)c(-c2[nH]c(=O)n3c2-c2ccccc2C3=O)c1
A) 0.46

Ref: the Deep4Chem optical property database
